Provide the reported composite z-score of each item.
- Test system: PRMT1 (protein arginine N-methyltransferase 1)
- TEST_DETAILS: PRMT1 binders on small-molecule microarrays, primary screen, biochemical, small-molecule microarray, 635 nm fluorescence (AID 1088)
- APPLIED_CONDITIONS: small-molecule microarray binding, higher = more signal
Numbers only.

COMPOUND | MEASURED_TARGET | READOUT_KIND | QUANTITATIVE_RESULT
CC[C@H]1C2=C3C(CC[C@H]4C(OC)OC[C@](C)([C@@H]34)N(C(=O)OC(C)(C)C)C2)C(CO)C1CO (some centres not stated) | PRMT1 (protein arginine N-methyltransferase 1) | composite z-score | 1.4
O=C(NCC(O)CO)[C@]1(Cc2ccccc2)N=C(c2ccc(OCCCO)cc2)O[C@@H]1c1ccccc1 (some centres not stated) | PRMT1 (protein arginine N-methyltransferase 1) | composite z-score | 1.26
COC(=O)C[C@H]1O[C@]2(C(=O)N(C)c3ccccc32)[C@@H](C)[C@@H]1[Si](C)(C)c1ccc(OC)cc1 | PRMT1 (protein arginine N-methyltransferase 1) | composite z-score | 0.53
CCOC(=O)C[C@H]1[C@H](OC(=O)c2ccccc2-c2ccccc2)[C@@H](NC(=O)C2CCCCC2)c2cc(OCCCO)ccc2N1C(=O)c1ccccc1 | PRMT1 (protein arginine N-methyltransferase 1) | composite z-score | 0.884
O=C(NCc1ccccc1)[C@@]1(Cc2ccccc2)COC(c2ccc(OCCCO)cc2)=N1 | PRMT1 (protein arginine N-methyltransferase 1) | composite z-score | 1.41
C[C@H]1COC(=O)[C@H](Cc2ccccc2)NC(=O)[C@@H](C)COC(=O)[C@H](Cc2ccccc2)NC1=O | PRMT1 (protein arginine N-methyltransferase 1) | composite z-score | 1.57

Suppose we examine the compound [N-]=[N+]=NCc1ccccc1C[C@@]1(C(=O)O)N=C(c2ccc(OCCCO)cc2)O[C@@H]1c1ccccc1N=[N+]=[N-] ; what composite z-score value has been reported?
1.51
